# TARGET SYSTEM: Bmx(h) (Homo sapiens, UniProt P51813)
# Construct: purchased Upstate Biotechnology (Dundee, UK), KinaseProfiler service
# Sequence (P51813 whole entry): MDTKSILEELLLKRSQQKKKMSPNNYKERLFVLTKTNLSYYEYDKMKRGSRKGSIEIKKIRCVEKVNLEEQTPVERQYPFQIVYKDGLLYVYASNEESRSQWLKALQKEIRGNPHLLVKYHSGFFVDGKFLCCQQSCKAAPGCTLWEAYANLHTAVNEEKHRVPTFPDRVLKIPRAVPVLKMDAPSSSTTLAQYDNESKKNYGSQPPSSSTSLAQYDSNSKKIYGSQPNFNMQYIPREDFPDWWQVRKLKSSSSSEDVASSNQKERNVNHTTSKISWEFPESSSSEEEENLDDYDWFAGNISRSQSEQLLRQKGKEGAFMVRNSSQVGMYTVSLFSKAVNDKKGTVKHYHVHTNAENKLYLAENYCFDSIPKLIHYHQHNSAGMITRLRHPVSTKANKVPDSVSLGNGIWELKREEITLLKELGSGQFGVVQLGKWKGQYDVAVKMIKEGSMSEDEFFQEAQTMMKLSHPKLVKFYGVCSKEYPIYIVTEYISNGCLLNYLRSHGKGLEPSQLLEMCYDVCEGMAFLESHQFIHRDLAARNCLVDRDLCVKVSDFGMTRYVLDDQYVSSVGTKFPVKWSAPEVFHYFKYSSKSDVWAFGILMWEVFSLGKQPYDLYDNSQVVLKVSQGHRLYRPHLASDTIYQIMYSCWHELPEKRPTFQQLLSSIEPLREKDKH
# ASSAY DETAILS: Upstate KinaseProfiler enzyme assay, Bmx
# Type: biochemical
# DETAILS: 500 nM compound; read-out: Percent inhibition at 500 nM Bmx(h)
# Experimental: Further enzyme assays were conducted at Upstate Biotechnology (Dundee, UK) in the KinaseProfiler™ Assay system. The general protocol is as follows. All kinases are pre-diluted to a 10× working concentration prior to addition into the assay. The composition of the dilution buffer for the kinases is 20 mM MOPS pH 7.0, 1 mM EDTA, 0.1% β-mercaptoethanol, 0.01% Brij-35, 5% glycerol, 1 mg/ml BSA. All substrates are dissolved and diluted to working stocks in de-ionised water.
OBSERVATION TYPE: inhibition at 0.5 µM

[Q] Fill in the blank: the reported inhibition at 0.5 µM of C=CC(=O)Nc1ccc(Sc2ccnc(Nc3ccccc3)n2)cc1 [Compound 350] is ____.
[A] 100%

[Q] Also need C=CC(=O)Nc1ccc(Sc2nc(Nc3cccc(NS(C)(=O)=O)c3)ncc2C)cc1 [Compound 288] , thanks.
[A] 100%

[Q] Also need C=CC(=O)Nc1ccc(Sc2nc(Nc3ccc(N4CCOCC4)cc3)ncc2C)c(C)c1 [Compound 163] , thanks.
[A] 85%

[Q] Also need C=CC(=O)Nc1ccc(Sc2nc(Nc3ccc(OC)c(NS(C)(=O)=O)c3)ncc2C)cc1 [Compound 293] , thanks.
[A] 79%

[Q] Also need C=CC(=O)Nc1ccc(Sc2ccnc(Nc3ccc(N4CCOCC4)cc3)n2)cc1OC [Compound 123] , thanks.
[A] 100%

[Q] Also need C=CC(=O)Nc1ccc(Sc2ccnc(Nc3cccc(OC)c3)n2)cc1 [Compound 105] , thanks.
[A] 100%

[Q] Also need O=C(CCNc1ccccc1)Nc1ccc(Sc2ccnc(Nc3ccccc3)n2)cc1 [Compound 351] , thanks.
[A] 100%

[Q] Also need C=CC(=O)Nc1cccc(Sc2ccnc(Nc3cc(OC)c(OC)c(OC)c3)n2)c1 [Compound 51] , thanks.
[A] 100%

* * *

# TARGET SYSTEM: BaF3 TELJAK2 cells (BafT_J2) (Homo sapiens, UniProt O60674)
# Construct: fused on or other part: TEL (ETV6) N-terminal part, coding nucleotides 1-487, serves as the oligomerising partner; It is fused through a Sal I site to the JAK2 kinase domain and expressed from pTRE2 in BaF3 cells bearing pTET-off; P41212 (Transcription factor ETV6)
# Sequence (O60674 whole entry, change not shown, the tested form may be a part): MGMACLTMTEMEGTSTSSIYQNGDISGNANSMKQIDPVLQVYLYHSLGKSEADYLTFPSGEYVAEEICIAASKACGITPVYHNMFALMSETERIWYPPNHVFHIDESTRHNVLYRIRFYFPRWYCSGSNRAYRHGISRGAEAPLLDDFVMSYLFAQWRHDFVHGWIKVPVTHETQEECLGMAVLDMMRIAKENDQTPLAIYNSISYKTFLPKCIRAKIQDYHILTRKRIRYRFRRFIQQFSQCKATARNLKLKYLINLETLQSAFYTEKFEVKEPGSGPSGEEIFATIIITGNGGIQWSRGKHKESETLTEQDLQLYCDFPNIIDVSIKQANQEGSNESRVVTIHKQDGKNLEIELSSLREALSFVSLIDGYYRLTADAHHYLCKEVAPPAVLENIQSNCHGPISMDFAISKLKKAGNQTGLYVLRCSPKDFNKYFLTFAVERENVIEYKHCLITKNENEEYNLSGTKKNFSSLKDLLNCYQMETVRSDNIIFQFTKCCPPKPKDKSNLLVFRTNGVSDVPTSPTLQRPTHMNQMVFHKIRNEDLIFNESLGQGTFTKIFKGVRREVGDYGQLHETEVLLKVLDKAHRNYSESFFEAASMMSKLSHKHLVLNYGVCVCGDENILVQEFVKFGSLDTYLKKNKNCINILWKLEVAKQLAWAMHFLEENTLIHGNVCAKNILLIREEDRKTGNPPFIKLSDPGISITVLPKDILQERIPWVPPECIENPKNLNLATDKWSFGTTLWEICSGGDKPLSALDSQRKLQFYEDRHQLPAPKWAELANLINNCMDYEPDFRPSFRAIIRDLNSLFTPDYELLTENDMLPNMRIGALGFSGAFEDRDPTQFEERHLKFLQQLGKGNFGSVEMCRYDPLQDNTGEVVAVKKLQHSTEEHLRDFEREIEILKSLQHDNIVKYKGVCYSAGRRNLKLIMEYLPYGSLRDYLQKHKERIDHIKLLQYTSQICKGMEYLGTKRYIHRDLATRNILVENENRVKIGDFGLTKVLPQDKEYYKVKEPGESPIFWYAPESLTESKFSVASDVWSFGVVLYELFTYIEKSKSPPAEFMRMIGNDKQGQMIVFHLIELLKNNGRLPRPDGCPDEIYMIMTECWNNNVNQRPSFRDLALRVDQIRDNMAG
# ASSAY DETAILS: Cellular screening, BaF3 TEL:JAK2 cells, Alamar Blue
# Format: cell-based
# DETAILS: 40 hr, read-out: BafT_J2 IC50_nM
OBSERVATION TYPE: GI50

[Q] Fill in the blank: the reported GI50 of Cc1cnc(Nc2ccc(O)cc2)nc1Sc1ccc(NC(=O)CCl)cc1 is ____.
[A] < 5 µM

[Q] Also need CNC(=O)CCC(=O)Nc1ccc(Sc2nc(Nc3ccc(N4CCOCC4)cc3)ncc2C)cc1 , thanks.
[A] > 20 µM

[Q] Also need Nc1ccc(Sc2ccnc(Nc3ccc(N4CCOCC4)cc3)n2)cc1 , thanks.
[A] > 20 µM

[Q] Also need C=CC(=O)Nc1ccc(Sc2nc(Nc3ccc(N4CCOCC4)cc3)ncc2C)cc1CC , thanks.
[A] > 20 µM

[Q] Also need C=CC(=O)Nc1ccc(Sc2ccnc(Nc3ccc(Cl)cc3)n2)cc1 , thanks.
[A] < 20 µM
